- Test system: SNB-75 CNS
- ASSAY_TEXT: NCI tumour cell line growth inhibition, 48 h
REPORTED_METRIC: TGI

{"MOLECULE": "Brc1ccc(-c2cn3ccncc3n2)cc1", "MEASURED_RESULT": "> 100 µM"}
{"MOLECULE": "C#CCOCC12C=CC(O1)C1C(=O)OCC12 (stereo unspecified)", "MEASURED_RESULT": "> 100 µM"}
{"MOLECULE": "CSC(=S)N/N=C(\\C)c1cccc(C)n1", "MEASURED_RESULT": "13.6 µM"}
{"MOLECULE": "CCN(c1cccc(NC(=S)Nc2ccccc2N(CC)c2cc(-c3ccccc3)no2)c1)c1cc(-c2ccccc2)no1", "MEASURED_RESULT": "> 100 µM"}
{"MOLECULE": "CCC1(COC(NC(=O)c2ccccc2)(C(F)(F)F)C(F)(F)F)COC1", "MEASURED_RESULT": "> 100 µM"}
{"MOLECULE": "COc1ccc(-n2cnc3c(NC(CCSC)C(=O)O)ncnc32)cc1 (stereo unspecified)", "MEASURED_RESULT": "> 100 µM"}
{"MOLECULE": "Nc1ccc(-c2nc3ccccc3[nH]2)c2ccccc12", "MEASURED_RESULT": "4.39 µM"}
{"MOLECULE": "COc1cc([C@@H]2c3cc(O)c(OC)cc3C=C(C(N)=O)[C@H]2C(N)=O)ccc1O", "MEASURED_RESULT": "> 100 µM"}
{"MOLECULE": "COCCOCOc1ccc(OCOCCOC)c2c1C(=O)c1ccccc1C2=O", "MEASURED_RESULT": "> 100 µM"}
{"MOLECULE": "C=C1CCC2[C@@H](CCC3[C@]2(C)CCC[C@]3(C)C(=O)OC)[C@@H]1CC=O (stereo partly specified)", "MEASURED_RESULT": "> 100 µM"}
{"MOLECULE": "CC(C)[C@@H]1ON1C(C)c1ccccc1 (stereo partly specified)", "MEASURED_RESULT": "> 100 µM"}
{"MOLECULE": "CC(C)=CCC/C(C)=C/CC/C(C)=C/CC/C=C(\\C)CC/C=C(\\C)CCC(=O)Nc1ccn(C2OC(CO)C(O)C2(F)F)c(=O)n1 (stereo unspecified)", "MEASURED_RESULT": "23.3 µM"}
{"MOLECULE": "COc1cc2c(c(OC)c1OC)-c1ccc(SC)c(=O)cc1[C@@H](NC1OC(CO)C(O)C(O)C1O)CC2 (stereo partly specified)", "MEASURED_RESULT": "> 100 µM"}
{"MOLECULE": "FC(F)(F)c1ccc2nc(Sc3ccccn3)cnc2c1", "MEASURED_RESULT": "96.1 µM"}
{"MOLECULE": "Cc1ccc(NC(=O)c2ccccc2C(=O)O)cc1C", "MEASURED_RESULT": "> 100 µM"}
{"MOLECULE": "CN(C)CC1CCCC1=O (stereo unspecified)", "MEASURED_RESULT": "9.6 µM"}
{"MOLECULE": "O=[As](O)(O)c1ccc(N=Nc2ccc(O)cc2)cc1", "MEASURED_RESULT": "> 100 µM"}
{"MOLECULE": "N/N=C1\\CC(=O)NC(=O)N1", "MEASURED_RESULT": "> 100 µM"}
{"MOLECULE": "COc1cc2nc(NCCCCCNC(=O)c3ccco3)nc(N)c2cc1OC", "MEASURED_RESULT": "54.2 µM"}
{"MOLECULE": "CCNC1=C(NC(=O)CC)C(=O)c2ccccc2C1=O", "MEASURED_RESULT": "> 100 µM"}
{"MOLECULE": "CC[C@@H](/C=C\\CCC(=O)C[C@H](O)CCC=C(C)C)O[Si](C(C)C)(C(C)C)C(C)C", "MEASURED_RESULT": "> 100 µM"}
{"MOLECULE": "BrCc1ccc(CBr)cc1", "MEASURED_RESULT": "> 100 µM"}
{"MOLECULE": "Cc1ccc2nc(NC(=O)/C(Cc3nc4ccc(Cl)cc4[nH]c3=O)=N\\NC(C)(C)C)sc2c1", "MEASURED_RESULT": "83.1 µM"}
{"MOLECULE": "Cc1cc(NCCCCCCCNc2cc(C)nc3cc([N+](=O)[O-])ccc23)c2ccc([N+](=O)[O-])cc2n1", "MEASURED_RESULT": "40.9 µM"}
{"MOLECULE": "O=C(CSC1=NCCN1)Nc1ccccc1", "MEASURED_RESULT": "43.5 µM"}
{"MOLECULE": "O=C(NC1CCCC1=O)c1ccccc1 (stereo unspecified)", "MEASURED_RESULT": "> 100 µM"}
{"MOLECULE": "Fc1ccccc1C1SCc2nc3cc4ccccc4cc3n21 (stereo unspecified)", "MEASURED_RESULT": "> 100 µM"}
{"MOLECULE": "CC1=NN(C(=O)CSc2nc3ccc(I)cc3c(=O)n2Cc2ccccc2)C(=O)C1", "MEASURED_RESULT": "85.3 µM"}
{"MOLECULE": "COC(=O)c1c(OC(C)=O)ccc2c1c1c(OC(C)=O)c3ccccc3c(OC(C)=O)c1n2Cc1ccccc1", "MEASURED_RESULT": "6.61 µM"}
{"MOLECULE": "COc1ccc(/C=N/NC(=O)Cn2c(-c3ccc(S(C)(=O)=O)cc3)nc3cc(Cl)ccc32)cc1", "MEASURED_RESULT": "> 50 µM"}
{"MOLECULE": "COc1ccc(C=O)c(NC(=O)C(C)C)c1", "MEASURED_RESULT": "> 100 µM"}
{"MOLECULE": "O=C(O)COc1c(Cl)cc(Cl)c2cccnc12", "MEASURED_RESULT": "> 100 µM"}
{"MOLECULE": "O=C(Cc1ccccc1)NN1C(=O)C(Cl)C1c1ccccc1O (stereo unspecified)", "MEASURED_RESULT": "> 100 µM"}
{"MOLECULE": "CC1CN1c1c(C(=O)/C=C/c2ccccc2)c(-c2ccccc2)nn(C)c1=O (stereo unspecified)", "MEASURED_RESULT": "40 µM"}
{"MOLECULE": "CCN1C(=O)N(CC)C2C1NN=c1s/c(=C\\c3ccccc3Br)c(=O)n12 (stereo unspecified)", "MEASURED_RESULT": "2.22 µM"}
{"MOLECULE": "Cn1c2ccccc2n2c(=O)c3c(c(C#N)c12)CCCC3", "MEASURED_RESULT": "> 100 µM"}
{"MOLECULE": "O=C(Nc1cccc(Nc2ncc(Br)c(NCCc3cnc[nH]3)n2)c1)N1CCCC1", "MEASURED_RESULT": "4.96 µM"}
{"MOLECULE": "COC(=O)C(C)(C)N=CN(C)C", "MEASURED_RESULT": "> 100 µM"}
{"MOLECULE": "Brc1c(C#CCC2CCCCC2)ccc(C#CCC2CCCCC2)c1Br", "MEASURED_RESULT": "> 100 µM"}
{"MOLECULE": "CC(C)(CC(O)C#N)/[N+]([O-])=[N+](\\[O-])C(C)(C)CC(O)C#N (stereo unspecified)", "MEASURED_RESULT": "76.2 µM"}
{"MOLECULE": "COc1ccc(-c2cc(=O)c3c(OC)c(OC)c(OC)c(OC)c3o2)cc1", "MEASURED_RESULT": "> 100 µM"}
{"MOLECULE": "CC(NC(C)(C)C)C(=O)c1cccc(Cl)c1 (stereo unspecified)", "MEASURED_RESULT": "> 100 µM"}
{"MOLECULE": "COc1ccc2c(c1)OC1=C(C(=O)OC1)C2c1cc(OC)c2c(c1)OCO2 (stereo unspecified)", "MEASURED_RESULT": "> 100 µM"}
{"MOLECULE": "C[C@@H]1O[C@@H](OC[C@H]2O[C@@H](OCCc3ccc(O)c(O)c3)[C@H](O)[C@@H](O)[C@@H]2OC(=O)/C=C/c2ccc(O)c(O)c2)[C@H](O)[C@H](O)[C@H]1O", "MEASURED_RESULT": "> 100 µM"}
{"MOLECULE": "Cc1c(C2=C(c3cn(C)c4ccccc34)C(=O)NC2=O)c2ccccc2n1C", "MEASURED_RESULT": "7.38 µM"}
{"MOLECULE": "c1ccc2c3c([nH]c2c1)C1CCCN1CC3 (stereo unspecified)", "MEASURED_RESULT": "> 10 µM"}
